EXPERIMENTAL_SYSTEM: Follistatin (Homo sapiens)
TEST_DESCRIPTION: follistatin binders on small-molecule microarrays, primary screen, biochemical, small-molecule microarray, 635/667 nm fluorescence (AID 1132)
EXPERIMENTAL_SETUP: FST binding, 635 nm fluorescence, higher = more signal
Note to self: values exactly at 1 are T. So composite z-score at or above 1 is T, below is F.

| SMILES_REPR | EXPERIMENTAL_SYSTEM | CATEGORY_LABEL |
| --- | --- | --- |
| COCCOC(=O)N1C(=O)[C@@]2(c3cc(C#CC4=CCCCC4)ccc31)[C@H](C(=O)N1CCc3cc(OC)c(OC)cc3C1)[C@H]1C(=O)O[C@H](c3ccccc3)[C@H](c3ccccc3)N1[C@@H]2c1ccccc1OCCO | Follistatin (Homo sapiens) | T |
| COC(=O)[C@@]1(Cc2ccccc2)[C@H]2c3cc(C(=O)N4CCCC4)n(Cc4ccc(C)o4)c3C[C@H]2CN1C(=O)c1ccccc1 | Follistatin (Homo sapiens) | F |
| COC(=O)[C@@]1(Cc2ccccc2)[C@H]2c3cc(C(=O)N4CCCC4)n(C)c3C[C@H]2CN1C(=O)c1ccccc1 | Follistatin (Homo sapiens) | F |
| O=C1N(CCS(=O)(=O)c2ccccc2)c2ccccc2C[C@@]12COC(c1ccc(OCCCO)cc1)=N2 | Follistatin (Homo sapiens) | T |
| COCCOC(=O)N1C(=O)[C@@]2(c3cc(C#CCC(C(=O)OC)C(=O)OC)ccc31)[C@H](C(=O)N1CCCCCCC1)[C@H]1C(=O)O[C@H](c3ccccc3)[C@H](c3ccccc3)N1[C@@H]2c1ccc(OCCO)cc1 | Follistatin (Homo sapiens) | T |
| O=C(NCc1ccccc1)[C@]1(CCS(=O)(=O)c2ccccc2)N=C(c2ccc(OCCCO)cc2)O[C@@H]1c1ccccc1 | Follistatin (Homo sapiens) | F |

###

Below: a set of entries, each annotated with reported z-score.
TEST_DESCRIPTION: mitochondrial membrane potential change in A549 cells, profiling panel, cell-based, JC-1 fluorescence, basal, 24 h, 100 nL (AID 1138);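 note: A549 lung adenocarcinoma cells under basal conditions with no added stimulus; test concentration not given here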
EXPERIMENTAL_SETUP: higher = more signal
METRIC: z-score

| COMPOUND | REPORTED_VALUE |
| --- | --- |
| C=CC[C@@]1(C(=O)NCC(O)CO)N=C(c2ccc(OCCCO)cc2)O[C@@H]1c1ccccc1N=[N+]=[N-] (stereo partly drawn) | -0.921 |
| COC(=O)[C@@]1(Cc2ccc(OC)cc2)[C@H]2c3cc(C(=O)N4CCCC4)n(Cc4ccccn4)c3C[C@H]2CN1C(=O)c1ccccc1 | 1.37 |
| O=C1O[C@@H](c2ccccc2)[C@@H](c2ccccc2)N2[C@@H](c3ccc(OCCO)cc3)[C@]3(C(=O)Nc4ccc(C#CC5=CCCCC5)cc43)[C@@H](C(=O)O)[C@H]12 | -2.48 |
| COC(=O)[C@@]1(Cc2ccccc2N=[N+]=[N-])COC(c2ccc(OCCCO)cc2)=N1 | 0.719 |
| C=C(COC)C(=O)CC[C@@H](OC(=O)c1cccnc1)c1ccc(CO)o1 | 0.217 |
| COc1ccc(C(O)C2C=CC3C(=O)N(c4ccccc4)C(=O)C3N2Nc2ccc([N+](=O)[O-])cc2)cc1OCc1ccccc1 (stereo not drawn) | 0.41 |
| Cc1ccc(F)cc1S(=O)(=O)N[C@@H]1CCN(Cc2ccc(-c3ccccc3)cc2)C1 | 0.225 |
| CN(C)CCCCCCNC(=O)[C@H]1C[C@H]2C(=O)N[C@@H](CCCCN)C(=O)N2[C@H]1c1ccc(O)cc1 | 0.868 |
